- System: A498 (Renal cancer)
- EXPERIMENT: NCI-60 screen (SRB, 48 h)
- TEST PARAMETERS: Homo sapiens, A498, read-out: LC50
OUTCOME MEASURE: CC50

Task item: Endpoint output: CC50 of C=C(C)C1CCC2(CO)CCC3(C)C(CCC4C5(C)CCCNC(C)(C)C5CCC43C)C12 (stereo not drawn) . Value?
Reply: 33 µM

Task item: Now the compound `C[C@H]1[C@H](C)CC[C@]2(CO)CC[C@]3(C)C(=CC[C@@H]4[C@@]5(C)CCCNC(C)(C)[C@@H]5CC[C@]43C)[C@H]12`
Reply: 6.63 µM

Task item: Another compound: `CC1(C)CC[C@]23CC[C@]4(C)[C@H](CC[C@@H]5[C@@]6(C)CCCNC(C)(C)[C@@H]6CC[C@]54C)[C@H]2[C@H]1OC3`
Reply: 8 µM

Task item: Follow-up entry: `C=C(C)[C@@H]1CC[C@]2(C(=O)N[C@H](CO)Cc3ccccc3)CC[C@]3(C)[C@H](CC[C@@H]4[C@@]5(C)CCCNC(C)(C)[C@@H]5CC[C@]43C)[C@@H]12`
Reply: 5.81 µM

Task item: Could you do the same for `C=C(C)[C@@H]1CC[C@]2(C)[C@H](C=CC3=C4C[C@@](C)(CO)CC[C@]4(C)CC[C@]32C)[C@@]1(C)CCCN` , please?
Reply: 5.44 µM

Task item: Next entry: `Cc1ccc(S(=O)(=O)OC[C@@]2(C)CC[C@]3(C)CC[C@]4(C)C(=C3C2)C=C[C@@H]2[C@@]3(C)CCCNC(C)(C)[C@@H]3CC[C@]24C)cc1`
Reply: 5.74 µM

====

- System: OVCAR-8 (Ovarian cancer)
- EXPERIMENT: NCI-60 screen (SRB, 48 h)
- TEST PARAMETERS: Homo sapiens, OVCAR-8, 48 h, read-out: TGI
Provide the recorded IC (TGI) for the entries that follow.
State the answer as a number, implicitly in µM.

Task item: // IC (TGI) lookup, key: C=C(C)[C@@H]1CC[C@]2(COS(=O)(=O)c3ccc(C)cc3)CC[C@]3(C)[C@@H](CC[C@@H]4[C@@]5(C)CCCNC(C)(C)[C@@H]5CC[C@]43C)[C@@H]12 [Compound 12]
Reply: 3.65

Task item: Then what about the compound C=C(C)[C@@H]1CC[C@]2(C)[C@H](CC=C3[C@@H]4[C@@H](C)[C@H](C)CC[C@]4(CO)CC[C@]32C)[C@@]1(C)CCCN [Compound 19] ?
Reply: 2.8

Task item: // repeat for C=C(C)[C@@H]1CCC=C2CC[C@]3(C)[C@H](CC[C@@H]4[C@@]5(C)CCCNC(C)(C)[C@@H]5CC[C@]43C)[C@H]21 [Compound 8] and report
Reply: 3.94

====

- Test system: COLO 205 (Colon cancer)
- EXPERIMENT: NCI-60 screen (SRB, 48 h)
- TEST PARAMETERS: Homo sapiens, COLO 205, read-out: LC50
Kindly state CC50 for each of the entries shown.
Units required after the number.

Task item: Item: `C[C@H]1[C@H](C)CC[C@]2(CO)CC[C@]3(C)C(=CC[C@@H]4[C@@]5(C)CCCNC(C)(C)[C@@H]5CC[C@]43C)[C@H]12` Test system: COLO 205 (Colon cancer) Read-out: CC50 Value: ?
Reply: 6.86 µM

Task item: Also `C=C(C)[C@@H]1CC[C@]2(C)[C@H](CC=C3[C@@H]4[C@@H](C)[C@H](C)CC[C@]4(CO)CC[C@]32C)[C@@]1(C)CCCN` , if possible.
Reply: 4.17 µM

Task item: Record: C=C(C)C1CCC2(CO)CCC3(C)C(CCC4C5(C)CCCNC(C)(C)C5CCC43C)C12 (centres unmarked)
Reply: 6.82 µM

Task item: Record: `C=C(C)[C@@H]1CCC=C2CC[C@]3(C)[C@H](CC[C@@H]4[C@@]5(C)CCCNC(C)(C)[C@@H]5CC[C@]43C)[C@H]21`
Reply: 5.64 µM

Task item: Try `CC1(C)CC[C@]23CC[C@]4(C)[C@H](CC[C@@H]5[C@@]6(C)CCCNC(C)(C)[C@@H]6CC[C@]54C)[C@H]2[C@H]1OC3` next.
Reply: 5.61 µM

Task item: Try this compound next: `CC1(C)CC[C@]2(CO)CC[C@]3(C)C(=CC[C@@H]4[C@@]5(C)CCCNC(C)(C)[C@@H]5CC[C@]43C)[C@@H]2C1`
Reply: 5.77 µM

Task item: Follow-up entry: `C=C(C)[C@@H]1CC[C@]2(C)[C@H](C=CC3=C4C[C@@](C)(CO)CC[C@]4(C)CC[C@]32C)[C@@]1(C)CCCN`
Reply: 6.96 µM

Task item: Now the same for `CC1(C)NCCC[C@]2(C)[C@H]3C=CC4=C5C[C@@](C)(CO)CC[C@]5(C)CC[C@@]4(C)[C@]3(C)CC[C@@H]12`
Reply: 43 µM
